Form field: remaining at 1 h, 50 µM (one value per entry).
# Assay: Metabolic stability in rat liver microsome assessed as parent compound remaining at 50 uM incubated for 1 hr in presence of NADPH regenerating system and GSH by LC-UV analysis
# Type: ADME
# Assay Conditions: liver microsomes, read-out: Stability
Return type: number; implicit unit %.

Example entries begin here.
[C-]#[N+]c1ccc(NC(=O)Cc2ccccc2)cc1
20
[C-]#[N+]c1ccc(NC(=O)Cc2cccc(Cl)c2)cc1
53
[C-]#[N+]c1ccc(C(=O)NCc2ccccc2)cc1
29

Next:
// returns reported remaining at 1 h, 50 µM for input `[C-]#[N+]c1ccc(NC(=O)c2ccncc2)cc1`
29
